Measured values drawn from PubChem BioAssay (NCATS) for this set.

Assignment: determine reported viability change for the given molecules.
ASSAY DETAILS: Nrf2 qHTS screen for inhibitors: Validation (AID 493153)
MEASUREMENT SETUP: A549 ARE-Fluc reporter, 18-24 h; measured here: cytotoxicity max response
Description: NIH Molecular Libraries Probe Production Network [MLPCN] NIH Chemical Genomics Center [NCGC] […] Assay Protocol Summary: A concentration-response assay was performed with A549 ARE_Fluc cells which are suspended in 5% FBS OPTI-MEM. […] The plate is then incubated at 37deg C at 5% CO2 for 30 minutes before they are read on the ViewLux (Perkin Elmer) for a fluorescent read Ex=405(10)/Em=525(10) for a 3 second exposure, 2x binning, and high gain. […]
Results filed as inconclusive are left out.
Please reply with the bare figure in % and do not write the unit itself.

Lab note: CC(=O)[C@H]1CCC2C3CC=C4C[C@@H](OS(=O)(=O)O)CC[C@]4(C)C3CC[C@@]21C (some centres not stated) gave viability change of 2.24

Item: C#CCn1c(=O)c2c(ncn2C)n(C)c1=O | viability change: 4.85

viability change recorded for this molecule, CO/N=C(\C(=O)N[C@@H]1C(=O)N2C(C(=O)O)=C(CSc3nc(=O)c(O)nn3C)CSC12)c1csc(N)n1 (some centres not stated) , is 3.25

Noted for CC(C)NC[C@H](O)COc1cccc2ccccc12 : its viability change reads -4.73

// viability change value for COc1ccccc1N1CCN(CCCNc2c(C)c(=O)n(C)c(=O)n2C)CC1 : 3.58

Quick note, viability change for Nc1ncnc2c1nc(Sc1ccc(Cl)cc1)n2[C@H]1OC2COP(=O)(O)O[C@@H]2C1O (some centres not stated) landed at 3.2

Short answer for Nc1ccc(N2C(=O)c3ccccc3C2=O)c(Cl)c1 : viability change was -6.09

Query OC[C@H]1O[C@@H](n2cnc3cncnc32)[C@H](O)[C@@H]1O yields viability change of 10.1

So for O=C(O)C1=CC(=C(c2ccc(O)c(C(=O)O)c2)c2ccc(O)c(C(=O)O)c2)C=CC1=O , the logged viability change turned out to be -5.86

Query COC(=O)C(C)(N)Cc1ccc(O)cc1 (configuration not stated) yields viability change of -3.06

Memo: O=C(O)c1cc(=O)cc(C(=O)O)[nH]1 , reported viability change: -5.74

Item: CCSC(=N)N | viability change: 0.659

For reference, reported viability change for NC[C@@H]1O[C@H](c2ccccc2)Cc2c1ccc(O)c2O stands at -1.5

Briefly, viability change measured for CC(=O)NNC(=O)N1Cc2ccccc2Oc2ccc(Cl)cc21 : -4.76

Record Oc1cc(O)c2c(c1)O[C@H](c1ccc(O)c(O)c1)[C@@H](O)C2 . Reported viability change: 1.23

viability change reading for CCCCCCCCCCCCCCC[C@H](O)[C@H](N)CO : 2.23

Summary for this molecule, CC(=O)O[C@H]1Cc2ccccc2N(C(N)=O)c2ccccc21 : viability change is -3.02

Given item CC(=O)/C(C)=N/O , the value recorded as its viability change is 20.6

Record CCCCCC(O)CCCC(=O)O (configuration not stated) , field viability change: 0.592

Input O=S(=O)(c1cccc2c(Cl)cccc12)N1CCCNCC1 . Output viability change: 2.63

Reported viability change of Cn1ccnc1 : 2.46

The molecule listed as NCCCCN=C(N)N has a reported viability change of -0.37

The molecule identified as Cc1nc(N=Nc2cc(S(=O)(=O)O)c3cc([N+](=O)[O-])cc(S(=O)(=O)O)c3c2)c(COP(=O)(O)O)c(C=O)c1O registered its viability change at -14.8

Form field viability change, entry O=C(O)/C(=C/c1c(C(=O)O)[nH]c2cc(Cl)cc(Cl)c12)c1ccccc1 : 4.57

// viability change value for NC(N)=NC(N)=Nc1ccccc1 : -4.42

Value of viability change reported for the molecule CC(=O)N[C@@H](Cc1c[nH]c2ccccc12)C(=O)OCc1cc(C(F)(F)F)cc(C(F)(F)F)c1 is 0.548

The value of viability change measured for the molecule NCCNS(=O)(=O)c1cccc2c(Cl)cccc12 turned out to be -10.5

Lab note: CC1CCN(CC[C@H]2CCCN2S(=O)(=O)c2cccc(O)c2)CC1 gave viability change of 8.25

Briefly, viability change measured for N=C(N)SCCc1cnc[nH]1 : -8.6

Reported viability change for CN(C)CCC(c1ccc(Br)cc1)c1ccccn1 (configuration not stated) was 3.82

viability change reported for this molecule C=CC1(C)CC(=O)C2(O)C(C)(O1)C(OC(C)=O)C(O)C1C(C)(C)CCC(O)C12C (configuration not stated) : 4.77

Query NC(=O)c1cc[n+](CC2=C(C(=O)O)N3C(=O)[C@@H](NC(=O)[C@@H](c4ccccc4)S(=O)(=O)[O-])[C@H]3SC2)cc1 yields viability change of 3.59
